target: p110δ/p85α (Homo sapiens (Human), UniProt O00329); experiment: PI 3-Kinase (human) HTRF assay, p110δ/p85α; type: biochemical; details: in vitro; read-out: PI3K δ IC50
Sequence (O00329 whole entry, one chain of several): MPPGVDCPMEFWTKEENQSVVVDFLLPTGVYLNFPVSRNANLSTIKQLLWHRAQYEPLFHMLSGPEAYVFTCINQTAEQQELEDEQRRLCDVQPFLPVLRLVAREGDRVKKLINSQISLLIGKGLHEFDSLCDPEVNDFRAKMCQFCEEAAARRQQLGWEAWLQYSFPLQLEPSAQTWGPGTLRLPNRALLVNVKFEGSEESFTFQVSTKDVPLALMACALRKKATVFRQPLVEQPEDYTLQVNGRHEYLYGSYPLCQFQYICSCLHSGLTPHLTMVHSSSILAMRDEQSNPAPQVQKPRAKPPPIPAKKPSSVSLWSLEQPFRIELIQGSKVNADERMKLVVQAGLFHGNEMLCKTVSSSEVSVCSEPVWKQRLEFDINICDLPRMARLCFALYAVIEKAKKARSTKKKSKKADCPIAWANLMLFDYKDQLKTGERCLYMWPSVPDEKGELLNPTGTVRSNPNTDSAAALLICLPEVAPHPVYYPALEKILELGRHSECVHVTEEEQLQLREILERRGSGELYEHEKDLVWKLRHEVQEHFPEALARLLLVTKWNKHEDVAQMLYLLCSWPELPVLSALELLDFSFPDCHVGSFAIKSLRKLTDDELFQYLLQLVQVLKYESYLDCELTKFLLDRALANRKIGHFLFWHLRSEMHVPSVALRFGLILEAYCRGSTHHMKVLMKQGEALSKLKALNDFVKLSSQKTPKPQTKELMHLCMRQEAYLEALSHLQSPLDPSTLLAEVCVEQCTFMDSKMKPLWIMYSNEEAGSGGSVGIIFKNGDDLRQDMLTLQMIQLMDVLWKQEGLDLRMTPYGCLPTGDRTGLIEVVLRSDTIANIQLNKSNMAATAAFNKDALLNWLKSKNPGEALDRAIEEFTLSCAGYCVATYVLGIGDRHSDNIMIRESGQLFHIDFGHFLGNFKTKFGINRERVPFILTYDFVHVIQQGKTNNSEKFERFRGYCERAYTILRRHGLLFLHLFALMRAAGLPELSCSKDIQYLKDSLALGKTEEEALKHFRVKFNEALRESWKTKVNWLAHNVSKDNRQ
pIC50: −log10 of the molar value.
Entries and their pIC50

Below: 3 compounds and their reported pIC50.
COMPOUND: CC(C)[C@H](N)C(=O)N1CCN(c2cnc3ccc(-c4ccc5oc(N)nc5c4)cc3n2)CC1
pIC50: > 6.00

COMPOUND: Nc1nc2cc(-c3ccc4ncc(C(=O)N5CC[C@@H](O)C5)n4c3)ccc2o1
pIC50: > 5.00

COMPOUND: CC(=O)Nc1ncc(-c2ccc3oc(N)nc3c2)s1
pIC50: > 5.00

Prompt: Fill in: pIC50 of Nc1nc2cc(-c3ccc4ncc(C(=O)N5CCC(O)C5)n4c3)ccc2o1 (stereo not shown) is ___
Completion: > 5.00

====

biological target: p110α/p85α (Homo sapiens (Human), UniProt P42336); test: PI 3-Kinase (human) HTRF assay, p110α/p85α; assay type: biochemical; details: read-out: PI3K α IC50
Sequence (P42336 whole entry, one chain of several): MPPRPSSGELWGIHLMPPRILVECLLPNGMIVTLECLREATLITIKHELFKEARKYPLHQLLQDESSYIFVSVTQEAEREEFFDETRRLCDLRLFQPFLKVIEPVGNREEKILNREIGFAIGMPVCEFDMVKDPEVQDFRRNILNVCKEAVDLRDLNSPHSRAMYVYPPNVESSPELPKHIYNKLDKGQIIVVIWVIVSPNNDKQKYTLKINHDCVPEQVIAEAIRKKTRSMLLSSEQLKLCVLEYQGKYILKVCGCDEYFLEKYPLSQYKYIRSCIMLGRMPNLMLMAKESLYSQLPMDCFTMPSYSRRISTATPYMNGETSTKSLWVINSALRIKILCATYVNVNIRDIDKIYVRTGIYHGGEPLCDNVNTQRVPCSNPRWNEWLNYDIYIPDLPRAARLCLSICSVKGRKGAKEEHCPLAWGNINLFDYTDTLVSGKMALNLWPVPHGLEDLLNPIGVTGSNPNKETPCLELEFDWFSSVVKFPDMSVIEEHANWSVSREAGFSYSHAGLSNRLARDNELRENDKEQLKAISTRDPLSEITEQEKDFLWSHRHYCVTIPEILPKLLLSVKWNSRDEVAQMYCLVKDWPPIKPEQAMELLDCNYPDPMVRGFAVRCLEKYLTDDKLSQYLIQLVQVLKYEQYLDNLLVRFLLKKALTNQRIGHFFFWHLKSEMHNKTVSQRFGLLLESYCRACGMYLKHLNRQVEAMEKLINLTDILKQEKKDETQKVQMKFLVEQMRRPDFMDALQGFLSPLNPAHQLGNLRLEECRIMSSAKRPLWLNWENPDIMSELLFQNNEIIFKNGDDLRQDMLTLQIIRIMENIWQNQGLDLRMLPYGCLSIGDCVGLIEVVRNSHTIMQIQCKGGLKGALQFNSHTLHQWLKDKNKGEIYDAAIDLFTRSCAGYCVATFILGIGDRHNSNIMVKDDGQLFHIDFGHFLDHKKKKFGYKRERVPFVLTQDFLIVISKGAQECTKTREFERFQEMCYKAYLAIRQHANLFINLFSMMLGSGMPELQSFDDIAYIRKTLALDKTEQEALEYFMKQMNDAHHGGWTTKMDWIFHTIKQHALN
pIC50: −log10 of the molar value.
ENDPOINT NAME: pIC50

Below: 2 compounds and their reported pIC50.
COMPOUND: CC(C)N1CCN(c2cnc3ccc(-c4ccc5oc(N)nc5c4)cc3n2)CC1
pIC50: > 7.00
--
COMPOUND: Nc1ncc2cc(-c3ccc4nccc(-c5ccncc5)c4c3)ccc2n1
pIC50: > 6.00

Prompt: Fill in: pIC50 of Nc1nc2ccc(-c3ccc4ncc(N5CCOCC5)nc4c3)cc2s1 is ___
Completion: > 7.00

Prompt: Fill in: pIC50 of Nc1nc2cc(-c3ccc4ncc(C(=O)NC5CC5)n4c3)ccc2o1 is ___
Completion: > 7.00

Prompt: Fill in: pIC50 of CN1CCN(c2cnc3ccc(-c4ccc5sc(N)nc5c4)cc3n2)CC1 is ___
Completion: > 6.00

Prompt: Fill in: pIC50 of Nc1nc2cc(-c3ccc4ncc(C(=O)N5CCNCC5)n4c3)ccc2o1 is ___
Completion: > 7.00

Prompt: Fill in: pIC50 of CC(=O)N1CCC(n2cnc3ccc(-c4ccc5oc(N)nc5c4)cc3c2=O)CC1 is ___
Completion: > 5.00

Prompt: Fill in: pIC50 of Nc1nc2cc(-c3ccn4ncc(-c5ccncc5)c4n3)ccc2o1 is ___
Completion: > 7.00

Prompt: Fill in: pIC50 of Nc1ncnc2ccc(-c3ccc4nccc(-c5ccncc5)c4c3)cc12 is ___
Completion: > 5.00

Prompt: Fill in: pIC50 of Nc1nc2cc(-c3ccc4ncc(-c5ccc6nc(N)oc6c5)n4c3)ccc2o1 is ___
Completion: > 7.00

Prompt: Fill in: pIC50 of CC(C)(C)N1CCN(c2cnc3ccc(-c4ccc5oc(N)nc5c4)cc3n2)CC1 is ___
Completion: > 7.00

Prompt: Fill in: pIC50 of CN1CCN(c2cnc3ccc(-c4ccc5oc(N)nc5c4)cc3n2)CC1 is ___
Completion: > 7.00

Prompt: Fill in: pIC50 of Nc1nc2cc(-c3ccc4nccn4c3)ccc2o1 is ___
Completion: > 5.00

Prompt: Fill in: pIC50 of Nc1nc2cc(-c3ccc4ncc(C(=O)N5CCOCC5)n4c3)ccc2s1 is ___
Completion: > 6.00

Prompt: Fill in: pIC50 of CN(CCN1CCOCC1)c1cnc2ccc(-c3ccc4oc(N)nc4c3)cc2n1 is ___
Completion: > 6.00

Prompt: Fill in: pIC50 of Nc1nc2cccc(-c3ccc4nccc(-c5ccncc5)c4c3)c2o1 is ___
Completion: > 7.00

====

target: p110β/p85α (Homo sapiens (Human), UniProt P42338); assay: PI 3-Kinase (human) HTRF assay, p110β/p85α; format: biochemical; settings: read-out: PI3K β IC50
Sequence (P42338 whole entry): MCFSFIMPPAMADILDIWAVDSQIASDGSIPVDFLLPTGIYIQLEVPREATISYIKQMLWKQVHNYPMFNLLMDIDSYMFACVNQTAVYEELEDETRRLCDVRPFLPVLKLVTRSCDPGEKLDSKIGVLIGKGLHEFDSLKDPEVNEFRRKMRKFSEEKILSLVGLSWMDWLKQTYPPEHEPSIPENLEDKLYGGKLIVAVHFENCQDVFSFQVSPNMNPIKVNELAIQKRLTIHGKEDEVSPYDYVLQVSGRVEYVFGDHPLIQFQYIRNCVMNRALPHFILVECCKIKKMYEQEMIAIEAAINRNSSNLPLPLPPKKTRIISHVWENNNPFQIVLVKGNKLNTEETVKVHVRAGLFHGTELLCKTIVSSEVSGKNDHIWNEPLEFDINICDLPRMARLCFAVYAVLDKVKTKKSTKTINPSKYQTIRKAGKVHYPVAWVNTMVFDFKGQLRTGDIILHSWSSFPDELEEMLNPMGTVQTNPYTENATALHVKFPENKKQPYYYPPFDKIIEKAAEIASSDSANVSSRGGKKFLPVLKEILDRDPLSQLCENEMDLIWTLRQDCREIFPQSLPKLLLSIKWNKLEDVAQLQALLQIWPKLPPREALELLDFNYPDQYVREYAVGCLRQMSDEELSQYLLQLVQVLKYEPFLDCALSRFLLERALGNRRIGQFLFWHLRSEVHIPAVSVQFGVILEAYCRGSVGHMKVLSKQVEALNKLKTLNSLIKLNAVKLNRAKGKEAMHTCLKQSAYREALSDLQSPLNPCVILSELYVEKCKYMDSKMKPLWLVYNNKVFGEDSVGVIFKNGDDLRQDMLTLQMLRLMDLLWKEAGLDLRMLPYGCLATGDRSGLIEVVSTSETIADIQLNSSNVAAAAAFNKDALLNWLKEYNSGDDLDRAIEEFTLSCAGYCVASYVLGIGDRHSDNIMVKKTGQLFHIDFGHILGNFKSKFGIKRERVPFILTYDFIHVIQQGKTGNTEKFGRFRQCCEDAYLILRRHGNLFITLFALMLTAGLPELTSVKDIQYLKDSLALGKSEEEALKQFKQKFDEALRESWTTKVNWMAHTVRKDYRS
Sequence (P27986 whole entry partner): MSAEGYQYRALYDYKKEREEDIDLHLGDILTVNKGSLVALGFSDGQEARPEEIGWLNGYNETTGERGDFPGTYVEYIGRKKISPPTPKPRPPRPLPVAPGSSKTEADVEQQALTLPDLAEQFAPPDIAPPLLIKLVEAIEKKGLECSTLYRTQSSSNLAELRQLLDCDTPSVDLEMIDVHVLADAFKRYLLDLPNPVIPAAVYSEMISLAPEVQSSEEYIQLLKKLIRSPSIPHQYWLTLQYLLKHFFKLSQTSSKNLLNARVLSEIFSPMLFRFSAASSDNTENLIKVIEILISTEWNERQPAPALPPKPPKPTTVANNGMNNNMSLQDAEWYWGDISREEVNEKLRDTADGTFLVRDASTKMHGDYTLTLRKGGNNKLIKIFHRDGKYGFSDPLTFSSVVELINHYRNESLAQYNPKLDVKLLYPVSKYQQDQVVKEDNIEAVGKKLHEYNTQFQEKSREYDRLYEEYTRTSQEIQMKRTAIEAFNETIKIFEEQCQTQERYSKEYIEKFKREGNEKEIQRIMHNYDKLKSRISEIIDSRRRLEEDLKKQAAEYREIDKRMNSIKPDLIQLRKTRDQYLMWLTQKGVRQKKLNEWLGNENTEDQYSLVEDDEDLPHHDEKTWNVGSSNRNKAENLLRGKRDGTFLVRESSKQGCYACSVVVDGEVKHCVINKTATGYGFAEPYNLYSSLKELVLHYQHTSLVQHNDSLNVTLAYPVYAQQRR
pIC50: −log10 of the molar value.
ENDPOINT NAME: pIC50

Below: 3 compounds and their reported pIC50.
SMILES STRING: CN(C)C1CCN(c2cnc3ccc(-c4ccc5oc(N)nc5c4)cc3n2)CC1
MEASUREMENT: > 7.00
--
SMILES STRING: CN1CCC(Nc2cnc3ccc(-c4ccc5oc(N)nc5c4)cc3n2)CC1
MEASUREMENT: > 6.00
--
SMILES STRING: Nc1nc2cc(-c3ccc4ncc(C(=O)N5CCC(N6CCOCC6)CC5)n4c3)ccc2o1
MEASUREMENT: > 5.00

Query compound follows.
Prompt: Fill in: pIC50 of Nc1nc2cccc(-c3ccc4nccc(-c5ccncc5)c4c3)c2o1 is ___
Completion: > 7.00

====

target: p110β/p85α (Homo sapiens (Human)); assay: PI 3-Kinase (human) HTRF assay, p110β/p85α; format: biochemical; conditions: in vitro; read-out: PI3K β IC50
pIC50: −log10 of the molar value.
ENDPOINT NAME: pIC50

MOLECULE: Nc1nc2cc(-c3ccc4ncc(N5CC[C@H](N6CCOCC6)C5)nc4c3)ccc2o1 [compound 375]
pIC50: > 5.00
--
MOLECULE: Nc1nc2cc(-c3ccc4ncc(C(=O)NCCCN5CCCC5)n4c3)ccc2o1 [compound 293]
pIC50: > 6.00
--
MOLECULE: CN1CCN(C2CN(c3cnc4ccc(-c5ccc6oc(N)nc6c5)cc4n3)C2)CC1 [compound 274]
pIC50: > 5.00
--
MOLECULE: C[C@H]1CN(C2CN(c3cnc4ccc(-c5ccc6oc(N)nc6c5)cc4n3)C2)CCN1 [compound 350]
pIC50: > 5.00
--
MOLECULE: Nc1nc2cc(-c3ccc4nc(N)sc4c3)ccc2o1 [compound 232]
pIC50: > 6.00
--
MOLECULE: Nc1nc2cc(-c3ccc4ncc(C(=O)N5CC[C@@H](O)C5)n4c3)ccc2o1 [compound 265]
pIC50: > 5.00
--
MOLECULE: Nc1cn2cc(-c3ccc4oc(N)nc4c3)ccc2n1 [compound 245]
pIC50: > 5.00

Query molecule follows.
Prompt: Find the measured pIC50: item CC(C)[C@H](N)C(=O)N1CCN(c2cnc3ccc(-c4ccc5oc(N)nc5c4)cc3n2)CC1 [compound 269] , target or system p110β/p85α (Homo sapiens (Human)).
Completion: > 6.00

====

molecular target: p110δ/p85α (Homo sapiens (Human)); experiment: PI 3-Kinase (human) HTRF assay, p110δ/p85α; assay type: biochemical; details: in vitro; read-out: PI3K δ IC50
Entries and their IC50

SMILES STRING: CC(=O)N1CCN(C2CN(c3cnc4ccc(-c5ccc6oc(N)nc6c5)cc4n3)C2)CC1
MEASUREMENT: < 1000 nM

Prompt: Fill in: IC50 of Nc1nc2cc(-c3ccc4nc(N)sc4c3)ccc2o1 is ___
Completion: < 10000 nM

Prompt: Fill in: IC50 of Nc1nc2cc(-c3ccc4ncc(C(=O)N5CC[C@H](O)C5)n4c3)ccc2o1 is ___
Completion: < 10000 nM

Prompt: Fill in: IC50 of CCN(CC)CCCNC(=O)c1cnc2ccc(-c3ccc4oc(N)nc4c3)cn12 is ___
Completion: < 100 nM

Prompt: Fill in: IC50 of Nc1nc2ccc(-c3ccc4nnc(-c5ccncc5)n4c3)cc2o1 is ___
Completion: < 10000 nM

Prompt: Fill in: IC50 of CC1(C)CN(C2CN(c3cnc4ccc(-c5ccc6oc(N)nc6c5)cc4n3)C2)CCN1 is ___
Completion: < 1000 nM

Prompt: Fill in: IC50 of CCN(CC)CCCn1cnc2ccc(-c3ccc4oc(N)nc4c3)cc2c1=O is ___
Completion: < 10000 nM

Prompt: Fill in: IC50 of Nc1nc2cc(-c3ccc4ncc(NCCN5CCCC5)nc4c3)ccc2o1 is ___
Completion: < 1000 nM

Prompt: Fill in: IC50 of Nc1nc2ccc(-c3ccc4sc(N)nc4c3)cc2o1 is ___
Completion: < 1000 nM

====

molecular target: p110α/p85α (Homo sapiens (Human), UniProt P42336); assay: PI 3-Kinase (human) HTRF assay, p110α/p85α; assay type: biochemical; details: read-out: PI3K α In Vitro IC50
pIC50: −log10 of the molar value.
ENDPOINT NAME: pIC50

Below: 4 compounds and their reported pIC50.
COMPOUND: Nc1cc(-c2ccc3ncc(C(=O)N4CCOCC4)n3c2)cnc1Cl [compound 415]
pIC50: > 5.00
--
COMPOUND: Nc1nc2cc(-c3ccc4ncc(C(=O)N5C6CCC5COC6)n4c3)ccc2o1 [compound 480]
pIC50: > 7.00
--
COMPOUND: O=C(c1cnc2ccc(-c3cnc(Cl)c(NS(=O)(=O)c4ccccc4)c3)cn12)N1CCOCC1 [compound 451]
pIC50: > 7.00
--
COMPOUND: Nc1nc2cc(-c3ccc4sc(N)nc4c3)cc(F)c2o1 [compound 437]
pIC50: > 5.00

Query compound follows.
Prompt: Fill in: pIC50 of CN(C(=O)c1cnc2ccc(-c3ccc4oc(N)nc4c3)cn12)C1CCOCC1 [compound 472] is ___
Completion: > 7.00

Ref: patent US11547697B2
